# assayProtocol: Binding of GSAO to dithiols, loss of thiols in DTNB assay
# measurementParameters: ring size 7; errors are 1 SD; read-out: Dissociation Constant
reportedProperty: Kd (nM)
Numeric answer only, unit nM assumed.

Data point: NC(CCC(=O)NC(CSCC(=O)Nc1ccc([As]=O)cc1)C(=O)NCC(=O)O)C(=O)O (stereo not shown) ; Kd = 420

====

# assayedTarget: TrpCysGlyProCysLys (thioredoxin active site hexapeptide) (Homo sapiens)
# Construct: purchased Auspep, Parkville, Australia; host or cells: synthetic peptide
# assayProtocol: Binding of GSAO to dithiols, loss of thiols in DTNB assay
# measurementParameters: dissociation constant, approximate value
reportedProperty: Kd

Data point: NC(CCC(=O)NC(CSCC(=O)Nc1ccc([As]=O)cc1)C(=O)NCC(=O)O)C(=O)O (stereo not shown) [GSAO] ; Kd = ~1000 nM
